Answer each item with its documented relative viability.
- Tested on: SW 900
- Protocol Summary: relative viability (nuclei count vs DMSO), 5 days (fraction); higher = more cells survive
- Experimental Context: first compound 0.5 µM
Number, no unit, nothing else.

Query block: Supply reported relative viability belonging to this compound: COc1cc2nccc(Oc3ccc(NC(=O)Nc4cc(C)on4)c(Cl)c3)c2cc1OC [Tivozanib] + Nc1ncn([C@H]2C[C@H](O)[C@@H](CO)O2)c(=O)n1 [Decitabine] (partner 2 µM)
Result block: 0.389

Query block: Indicate its recorded relative viability; the compound in question is COc1cc2nccc(Oc3ccc(NC(=O)Nc4cc(C)on4)c(Cl)c3)c2cc1OC [Tivozanib] + O=C(c1cc(Cc2n[nH]c(=O)c3ccccc23)ccc1F)N1CCN(C(=O)C2CC2)CC1 [Olaparib] (partner 8 µM)
Result block: 0.855

Query block: Supply recorded relative viability for Nc1ccn([C@@H]2O[C@H](CO)[C@@H](O)[C@@H]2O)c(=O)n1 [Cytarabine] + CC(=O)Nc1cccc(-n2c(=O)n(C3CC3)c(=O)c3c(Nc4ccc(I)cc4F)n(C)c(=O)c(C)c32)c1 [Trametinib] (partner 0.02 µM) here.
Result block: 0.243

Query block: Tell me its relative viability given Nc1ccn([C@@H]2O[C@H](CO)[C@@H](O)[C@@H]2O)c(=O)n1 [Cytarabine] + Cc1cc(Nc2cc(N3CCN(C)CC3)nc(Sc3ccc(NC(=O)C4CC4)cc3)n2)n[nH]1 [Tozasertib] (partner 0.1 µM) as the entry.
Result block: 0.134
